pIC50: −log10 of the molar value.
Listed below are compounds with pIC50 for Lysine-specific histone demethylase 1A (Homo sapiens, UniProt O60341), each taken from published literature.

# compound, pIC50
records = [
    ("Cn1c(N2CCC(N)CC2)nc(-c2ccc(C#N)c(F)c2)c(C#CC2CCCC2)c1=O", "> 7.00"),
]

**Query** Determine reported pIC50 for `N#Cc1ccc(-c2cc3c(ccn3C[C@H]3CNCCO3)nc2-c2ccc(F)cc2)cc1` ; test system: Lysine-specific histone demethylase 1A (Homo sapiens, UniProt O60341).
**Result** > 7.00

**Query** Determine reported pIC50 for `COCc1ccc(-c2c(-c3ccc(C#N)c(F)c3)nc(N3CCC(N)CC3)n(C)c2=O)cc1` ; test system: Lysine-specific histone demethylase 1A (Homo sapiens, UniProt O60341).
**Result** > 7.00

**Query** Determine reported pIC50 for NC1CCC(NCC2(CN[C@H]3CC3c3ccccc3)CC2)CC1 (stereo partly shown) ; test system: Lysine-specific histone demethylase 1A (Homo sapiens, UniProt O60341).
**Result** ≥ 7.30
